Test system: 817829-284-R-J1-PDC multi-cell spheroid viability;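 further: spheroids exposed to agents for seven days before readout; percent of vehicle DMSO control viability which is 100%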
Assay: Anticancer human tumor 817829-284-R-J1-PDC patient-derived colon adenocarcinoma cell line growth inhibition [PI3K]
Conditions: second compound 0.1 µM; first compound 0.0316 µM; hits give low values
value-kind: viability, T/C (%)
Express your answer in %, writing the number without its unit.

query: Look up viability, T/C for this compound: CC(C)NCC(C(=O)N1CCN(c2ncnc3c2C(C)CC3O)CC1)c1ccc(Cl)cc1 (stereo unspecified) + COc1c(OCCCN2CCOCC2)ccc2c3n(c(=NC(=O)c4cnc(N)nc4)nc12)CCN3
result: 40.7

query: What do you have for CC(=O)c1c(C)c2cnc(Nc3ccc(N4CCNCC4)cn3)nc2n(C2CCCC2)c1=O + CC(Nc1ncnc2nc[nH]c12)c1cc2cccc(Cl)c2c(=O)n1-c1ccccc1 ?
result: 79

query: What do you have for CC1(C)CCC(CN2CCN(c3ccc(C(=O)NS(=O)(=O)c4ccc(NCC5CCOCC5)c([N+](=O)[O-])c4)c(Oc4cnc5[nH]ccc5c4)c3)CC2)=C(c2ccc(Cl)cc2)C1 + CC(Nc1ccc2c(c1)OCCn1cc(N3C(=O)OCC3C(F)F)nc1-2)C(N)=O ?
result: 78.9

query: What do you have for CC(C)n1nc(-c2ccc3oc(N)nc3c2)c2c(N)ncnc21 + CC(Nc1ccc2c(c1)OCCn1cc(N3C(=O)OCC3C(F)F)nc1-2)C(N)=O ?
result: 32.1

query: What do you have for CC(=O)c1c(C)c2cnc(Nc3ccc(N4CCNCC4)cn3)nc2n(C2CCCC2)c1=O + COc1c(OCCCN2CCOCC2)ccc2c3n(c(=NC(=O)c4cnc(N)nc4)nc12)CCN3 ?
result: 22.7

query: What do you have for C#Cc1c(F)ccc2cc(O)cc(-c3ncc4c(N5CC6CCC(C5)N6)nc(OCC56CCCN5CC(F)C6)nc4c3F)c12 (stereo unspecified) + CC(Nc1ccc2c(c1)OCCn1cc(N3C(=O)OCC3C(F)F)nc1-2)C(N)=O ?
result: 64.9

query: What do you have for CC(=O)c1c(C)c2cnc(Nc3ccc(N4CCNCC4)cn3)nc2n(C2CCCC2)c1=O + Cc1nc(NC(=O)N2CCCC2C(N)=O)sc1-c1ccnc(C(C)(C)C(F)(F)F)c1 ?
result: 38.1

query: What do you have for Cn1ncnc1[C@H]1c2n[nH]c(=O)c3cc(F)cc(c23)N[C@@H]1c1ccc(F)cc1 + Cc1nc(NC(=O)N2CCCC2C(N)=O)sc1-c1ccnc(C(C)(C)C(F)(F)F)c1 ?
result: 53.9

query: What do you have for CCCS(=O)(=O)Nc1ccc(F)c(C(=O)c2c[nH]c3ncc(-c4ccc(Cl)cc4)cc23)c1F + CC(Nc1ncnc2nc[nH]c12)c1cc2cccc(Cl)c2c(=O)n1-c1ccccc1 ?
result: 78

query: What do you have for CCCS(=O)(=O)Nc1ccc(F)c(C(=O)c2c[nH]c3ncc(-c4ccc(Cl)cc4)cc23)c1F + COc1c(OCCCN2CCOCC2)ccc2c3n(c(=NC(=O)c4cnc(N)nc4)nc12)CCN3 ?
result: 34.4

query: What do you have for CC(C)NCC(C(=O)N1CCN(c2ncnc3c2C(C)CC3O)CC1)c1ccc(Cl)cc1 (stereo unspecified) + Cc1nc(NC(=O)N2CCCC2C(N)=O)sc1-c1ccnc(C(C)(C)C(F)(F)F)c1 ?
result: 82.5

query: What do you have for CCCS(=O)(=O)Nc1ccc(F)c(C(=O)c2c[nH]c3ncc(-c4ccc(Cl)cc4)cc23)c1F + CC(Nc1ccc2c(c1)OCCn1cc(N3C(=O)OCC3C(F)F)nc1-2)C(N)=O ?
result: 38.9

query: What do you have for C=CC(=O)N1CCN(c2nc(=O)n(-c3c(C)ccnc3C(C)C)c3nc(-c4c(O)cccc4F)c(F)cc23)C(C)C1 (stereo unspecified) + CC(Nc1ccc2c(c1)OCCn1cc(N3C(=O)OCC3C(F)F)nc1-2)C(N)=O ?
result: 64.7

query: What do you have for CNC(=O)c1ccc(N2C(=S)N(c3ccc(C#N)c(C(F)(F)F)c3)C(=O)C2(C)C)cc1F + COc1c(OCCCN2CCOCC2)ccc2c3n(c(=NC(=O)c4cnc(N)nc4)nc12)CCN3 ?
result: 35.4

query: What do you have for Cn1ncnc1[C@H]1c2n[nH]c(=O)c3cc(F)cc(c23)N[C@@H]1c1ccc(F)cc1 + CC(Nc1ccc2c(c1)OCCn1cc(N3C(=O)OCC3C(F)F)nc1-2)C(N)=O ?
result: 43

query: What do you have for Cn1ncc(Cl)c1-c1cc(C(=O)NC(CN)Cc2cccc(F)c2)sc1Cl (stereo unspecified) + CC(Nc1ccc2c(c1)OCCn1cc(N3C(=O)OCC3C(F)F)nc1-2)C(N)=O ?
result: 56.3

query: What do you have for C[C@@H](NC(=O)c1ncnc(N)c1Cl)c1ncc(C(=O)Nc2cc(C(F)(F)F)c(Cl)cn2)s1 + COc1c(OCCCN2CCOCC2)ccc2c3n(c(=NC(=O)c4cnc(N)nc4)nc12)CCN3 ?
result: 31

query: What do you have for CC(Cn1ccc(-c2ccc(C#N)c(Cl)c2)n1)NC(=O)c1cc(C(C)O)[nH]n1 (stereo unspecified) + Cc1nc(NC(=O)N2CCCC2C(N)=O)sc1-c1ccnc(C(C)(C)C(F)(F)F)c1 ?
result: 42.2
